protocol.notes: In vitro concentration at which 50% of human colon carcinoma cells (S1-B1-20) resistant to bisantrene have survived
Type: ADME, cell-based, S1B1-20
experimental.conditions: S1-B1-20 human colon carcinoma cells resistant to bisantrene, read-out: LD50 (the source's name)
For each entry below, report its CC50 value.
Report as a plain number; the unit µM is understood.

INPUT: Provide one value: measured CC50 of COc1ccc(C(CCCCCN2CCc3cc(OC)c(OC)cc3C2)SC2CCCCC2)cc1OC (centres undefined)
OUTPUT: 16.1

INPUT: Determine its reported CC50: COc1ccc(C(C#N)(CCCCCN2CCc3cc(OC)c(OCc4ccccc4)cc3C2)Sc2ccc(C)cc2)cc1OC (centres undefined)
OUTPUT: 40

INPUT: Provide only the value of recorded CC50 for COc1ccc(C(C#N)(CCCCCN2CCc3cc(OC)c(OCCn4ccnc4)cc3C2)Sc2ccc(C)cc2)cc1OC (stereo in doubt; 48)
OUTPUT: 11.6

INPUT: Tell me CC50 reported for COc1ccc(CC2c3cc(OC)c(OC)cc3CCN2CCCCCC(C#N)(Sc2ccc(C)cc2)c2ccc(OC)c(OC)c2)cc1OC (centres undefined)
OUTPUT: 78.2

INPUT: // Input: COc1ccc(C(C#N)(CCCCCN2CCc3cc4c(cc3C2)OCO4)Sc2ccc(C)cc2)cc1OC (centres undefined) . Output its CC50 only.
OUTPUT: 30

INPUT: Quick one: give measured CC50 for COc1cc2c(cc1OC)CN(CCCCCCC(Sc1ccc(C)cc1)c1ccc(OC)c(OCCCl)c1)CC2 (centres undefined)
OUTPUT: 10.3

INPUT: Supply reported CC50 belonging to this compound: COc1ccc(C(CCCCCN2CCc3cc4c(cc3C2)OCO4)Sc2ccc(C)cc2)cc1OC (centres undefined)
OUTPUT: 24.9

INPUT: Read off the recorded CC50 for COc1ccc(C(C#N)(CCCCCCCCN2CCc3cc(OC)c(OC)cc3C2)Sc2ccc(C)cc2)cc1OC (centres undefined)
OUTPUT: 11.6

INPUT: Recall and state the measured CC50 for COc1ccc(C(C#N)(CC#CCCN2CCc3cc(OC)c(OC)cc3C2)Sc2ccc(C)cc2)cc1OC (centres undefined) .
OUTPUT: 36

* * *

Tested on: S1B1-20
protocol.notes: In vitro concentration required to inhibit tumor activity on subclone of human colon carcinoma cells (S1-B1-20) resistant to bisantrene
Type: functional, cell-based
experimental.conditions: Homo sapiens, S1B1-20
Consider the following compounds; for each one, report its pIC50.
Field pIC50 (float): negative decimal logarithm of the concentration in molar.

INPUT: Identify the reported pIC50 for the following entry. COc1ccc(C(C#N)(CCCCCN2CCc3cc(OC)c(OCc4ccccc4)cc3C2)Sc2ccc(C)cc2)cc1OC (stereo not drawn)
OUTPUT: 6.07

INPUT: Identify the reported pIC50 for the following entry. COc1ccc(C(CCCN2CCc3cc(OC)c(OC)cc3C2)Sc2ccc(C)cc2)cc1OC (stereo not drawn)
OUTPUT: 5.91

INPUT: Answer with the recorded pIC50 for the compound listed here: COc1ccc(C(CCCCCN2CCc3cc(OC)c(OC)cc3C2)SC2CCCCC2)cc1OC (stereo not drawn)
OUTPUT: 6.14

* * *

protocol.notes: Partition coefficient (logP)
Type: physicochemical
experimental.conditions: octanol/water; read-out: logP
Please respond with reported logP for every item in the list.
API note: the answer field is a bare number with no unit suffix.

INPUT: Write down logP measured for item COc1ccc(C(C#N)(CCCCCN2Cc3cc(OC)c(OCCCl)cc3C2)Sc2ccc(C)cc2)cc1OC (stereo not drawn)
OUTPUT: 6.14

INPUT: Given COc1ccc(C(C#N)(CCCCCN2CCc3cc(OC)c(OC)cc3C2)Sc2ccc(C)cc2)cc1OC (stereo not drawn) , respond with its logP.
OUTPUT: 6.18

INPUT: For the compound COc1ccc(C(C#N)(CCCCCN2CCc3cc(OC)c(OCCn4ccnc4)cc3C2)Sc2ccc(C)cc2)cc1OC (stereo in doubt; 48) , report logP.
OUTPUT: 5.86

// provenance: ChEMBL document CHEMBL1132241
